System: HT-29
test-summary: Antiproliferative activity against human HT-29 cells assessed as cell growth inhibition at 10 uM incubated for 24 hrs by sulforhodamine B assay
Type: functional
measurement-conditions: read-out: GI
property-label: inhibition of growth at 10 µM (%)
Unit % implied. Number only.

Below are worked cases with known answers.
>  <structure-notation>
COc1ccc(OC)c(-c2nc(SCC(=O)c3ccc(Br)cc3)nc(Nc3ccc(S(N)(=O)=O)cc3)c2C#N)c1

>  <measure-unit>
%

>  <inhibition of growth at 10 µM>
72.8

$$$$
>  <structure-notation>
Cc1ccc(-c2nc(SCC(=O)c3ccccc3)nc(Nc3ccc(S(N)(=O)=O)cc3)c2C#N)cc1

>  <measure-unit>
%

>  <inhibition of growth at 10 µM>
7.65

$$$$
>  <structure-notation>
NS(=O)(=O)c1ccc(Nc2cc(-c3ccccc3)nc(SCC(=O)c3ccc(Br)cc3)n2)cc1

>  <measure-unit>
%

>  <inhibition of growth at 10 µM>
21.8

$$$$

QUERY: Any idea what inhibition of growth at 10 µM was measured for COc1ccc(OC)c(-c2nc(SCC(=O)c3ccc(Br)cc3)nc(Nc3cccc(S(N)(=O)=O)c3)c2C#N)c1 ?
RESULT: 9.87
